target: Cholinesterase (Homo sapiens); assay: Inhibition of recombinant human serum BuChE using butyrylthiocholine iodide as substrate pretreated for 5 mins followed by substrate addition measured for 5 mins by Ellman's method
Sequence (P06276 whole entry): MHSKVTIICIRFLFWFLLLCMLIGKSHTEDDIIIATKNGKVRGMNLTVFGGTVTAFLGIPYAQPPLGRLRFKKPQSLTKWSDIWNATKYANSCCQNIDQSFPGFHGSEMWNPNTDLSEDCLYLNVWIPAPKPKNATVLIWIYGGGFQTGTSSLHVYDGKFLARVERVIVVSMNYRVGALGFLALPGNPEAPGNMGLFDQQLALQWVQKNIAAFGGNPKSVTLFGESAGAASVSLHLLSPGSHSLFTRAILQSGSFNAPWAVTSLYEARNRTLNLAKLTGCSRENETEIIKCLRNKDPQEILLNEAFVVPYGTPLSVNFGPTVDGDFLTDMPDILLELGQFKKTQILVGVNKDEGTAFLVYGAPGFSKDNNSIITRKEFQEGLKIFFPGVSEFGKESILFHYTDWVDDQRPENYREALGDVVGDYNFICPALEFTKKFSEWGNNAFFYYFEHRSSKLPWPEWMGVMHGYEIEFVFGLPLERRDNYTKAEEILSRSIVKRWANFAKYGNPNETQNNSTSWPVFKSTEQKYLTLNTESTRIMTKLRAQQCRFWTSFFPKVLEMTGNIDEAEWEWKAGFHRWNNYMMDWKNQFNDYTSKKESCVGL
The following compounds are shown together with reported pIC50 values.
Field pIC50 (float): negative decimal logarithm of the concentration in molar.

Consider the reported pIC50 for these compounds:
O=C(CCc1c[nH]c2ccccc12)NCCC1CCN(Cc2ccccc2)CC1 | 9.05
Cn1cc(CC(=O)NCCC2CCN(Cc3ccccc3)CC2)c2ccccc21 | 9.60
Cn1cc(C(=O)NCCC2CCN(Cc3ccccc3)CC2)c2ccccc21 | 6.17
Cc1[nH]c2ccccc2c1CC(=O)NCCC1CCN(Cc2ccccc2)CC1 | 8.96
O=C(Cc1c[nH]c2ccccc12)NCCC1CCN(Cc2ccccc2)CC1 | 9.06

What value of pIC50 has been recorded for this entry: `O=C(Cc1c[nH]c2ccc(Br)cc12)NCCC1CCN(Cc2ccccc2)CC1` 9.17

What value of pIC50 has been recorded for this entry: `O=C(CCCc1c[nH]c2ccccc12)NCCC1CCN(Cc2ccccc2)CC1` 7.92

----------
assay: in vitro; conditions: PAMPA
Description: Permeability of the compound at 500 uM after 8 hrs by PAMPA
TEST READOUT: Papp at 8 h, 500 µM (×10⁻⁶ cm/s)
Give the value, in units of ×10⁻⁶ cm/s, as a plain number.

O=C(Cc1c[nH]c2ccccc12)NCCC1CCN(Cc2ccccc2)CC1 | 0.1
O=c1ccc2ccccc2o1 [COUMARIN] | 19.3
Cn1cc(CC(=O)NCCC2CCN(Cc3ccccc3)CC2)c2ccccc21 | 5.5
Cc1[nH]c2ccccc2c1CC(=O)NCCC1CCN(Cc2ccccc2)CC1 | 0.7
Cn1cc(C(=O)NCCC2CCN(Cc3ccccc3)CC2)c2ccccc21 | 4.6

What value of Papp at 8 h, 500 µM has been recorded for this entry: CO/N=C(\C(=O)N[C@@H]1C(=O)N2C(C(=O)O)=C(CSc3nc(=O)c(=O)[nH]n3C)CS[C@H]12)c1csc(N)n1 [CEFTRIAXONE] 0.1

What value of Papp at 8 h, 500 µM has been recorded for this entry: `O=C(CCc1c[nH]c2ccccc12)NCCC1CCN(Cc2ccccc2)CC1` 0.7

What value of Papp at 8 h, 500 µM has been recorded for this entry: Nc1nc2c(ncn2COCCO)c(=O)[nH]1 [ACYCLOVIR] 0.1

What value of Papp at 8 h, 500 µM has been recorded for this entry: `O=C(CCCc1c[nH]c2ccccc12)NCCC1CCN(Cc2ccccc2)CC1` 0.1

What value of Papp at 8 h, 500 µM has been recorded for this entry: NC(=O)N1c2ccccc2C=Cc2ccccc21 [CARBAMAZEPINE] 11.2

What value of Papp at 8 h, 500 µM has been recorded for this entry: `O=C(Cc1c[nH]c2ccc(Br)cc12)NCCC1CCN(Cc2ccccc2)CC1` 0.5

----------
assay: in vitro; details: PAMPA
Description: Permeability of the compound after 2.5 hrs by PAMPA
The following compounds are shown together with reported Papp at 2.5 h values.
Give the value, in units of ×10⁻⁶ cm/s, as a plain number.

Consider the reported Papp at 2.5 h for these compounds:
CNCCCN1c2ccccc2CCc2ccccc21 | 11.4
O=C(Cc1c[nH]c2ccccc12)NCCC1CCN(Cc2ccccc2)CC1 | 2.4
Cc1[nH]c2ccccc2c1CC(=O)NCCC1CCN(Cc2ccccc2)CC1 | 2.3
O=C(CCCc1c[nH]c2ccccc12)NCCC1CCN(Cc2ccccc2)CC1 | 3.9
Cn1c(=O)c2c(ncn2C)n(C)c1=O | 0.1
CN(C)CCCN1c2ccccc2Sc2ccccc21 | 11.8
Cn1cc(C(=O)NCCC2CCN(Cc3ccccc3)CC2)c2ccccc21 | 4.8
Cn1cc(CC(=O)NCCC2CCN(Cc3ccccc3)CC2)c2ccccc21 | 7.3

What value of Papp at 2.5 h has been recorded for this entry: `CN1C(C(=O)Nc2ccccn2)=C(O)c2ccccc2S1(=O)=O` 0.1

What value of Papp at 2.5 h has been recorded for this entry: `O=C(CCc1c[nH]c2ccccc12)NCCC1CCN(Cc2ccccc2)CC1` 2.2

What value of Papp at 2.5 h has been recorded for this entry: `O=C(Cc1c[nH]c2ccc(Br)cc12)NCCC1CCN(Cc2ccccc2)CC1` 5.8
